Assay: Plasma concentration in mouse at 30 mg/kg, ip after 1 hr
Type: ADME, organism-based
Design: dose 30 mg/kg, route intraperitoneal
Details: read-out: Drug uptake

>  <cpd_smiles>
O=C(c1ccccc1NCc1ccc2ncccc2c1)c1n[nH]c2ccccc12

>  <unit_annotation>
nM

>  <concentration at 1 h>
2400

$$$$
>  <cpd_smiles>
Cc1ccc2c(c1)c(C(=O)c1ccccc1NCc1ccc3ncccc3c1)cn2C

>  <unit_annotation>
nM

>  <concentration at 1 h>
2900

$$$$
